Attribution: patent US7459450B2

biological target: Human NPY Y1 receptors (Homo sapiens); construct: expressed in transfected cells; host or cells: CHO cells (membrane protein); assay: NPY Receptor Binding Assay; details: Procedure E compounds, rated A/B/C
Sequence (P25929 whole entry): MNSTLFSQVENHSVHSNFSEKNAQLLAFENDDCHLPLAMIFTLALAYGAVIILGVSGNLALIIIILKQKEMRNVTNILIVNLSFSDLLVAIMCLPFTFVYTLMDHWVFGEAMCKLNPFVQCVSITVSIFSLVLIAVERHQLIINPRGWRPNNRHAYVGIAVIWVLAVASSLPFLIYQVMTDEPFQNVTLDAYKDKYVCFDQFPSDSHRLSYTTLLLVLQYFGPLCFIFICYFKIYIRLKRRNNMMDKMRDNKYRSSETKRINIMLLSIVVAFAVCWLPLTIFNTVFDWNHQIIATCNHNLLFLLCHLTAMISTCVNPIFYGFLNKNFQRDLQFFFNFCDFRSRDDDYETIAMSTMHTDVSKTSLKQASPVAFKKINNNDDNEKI
Readout Label: Ki

* Cc1ccc2nc(NCCc3ccc(/N=C4/N[C@H](CC(C)C)CS4)cc3)sc2c1 | < 1 µM
* CS(=O)(=O)c1ccc2nc(NCCc3ccc(/N=C4/NC5(CCCC5)CS4)cc3)sc2c1 | 1 to 10 µM
* CC(C)C1CCSC(Nc2ccc(CCNc3nc4ccccc4s3)cc2)=N1 (centres unmarked) | < 1 µM
* CC[C@@H]1CS/C(=N\c2ccc(CCNc3nc4ccc(F)cc4s3)cc2)N1 | < 1 µM
* Cc1ccc2nc(NCCc3ccc(/N=C4/N[C@@H](Cc5ccccc5)CS4)cc3)sc2c1 | 1 to 10 µM
* COc1ccc2nc(NCCc3ccc(/N=C4/N[C@H](CC(C)C)CS4)cc3)sc2c1 | < 1 µM
* COc1ccc2nc(NCCc3ccc(/N=C4/NC(C)(C)CS4)cc3)sc2c1 | 1 to 10 µM
* C[C@@H]1N/C(=N\c2cccc(CCNc3nc4ccccc4s3)c2)SC1c1ccccc1 (some centres unmarked) | < 1 µM
* CC[C@@H]1CS/C(=N\c2ccc(CCNc3nc4ccc(OC)cc4s3)cc2)N1 | 1 to 10 µM
* c1ccc(C2CN/C(=N\c3cccc(CCNc4nc5ccccc5s4)c3)S2)cc1 (centres unmarked) | > 10 µM

What does the data say about its Ki? Entry: CCCCC1CS/C(=N\c2ccc(CCNc3nc4ccc(Cl)cc4s3)cc2)N1 (centres unmarked) 1 to 10 µM

What does the data say about its Ki? Entry: O=[N+]([O-])c1ccc2nc(NCCc3ccc(/N=C4/N[C@H]5c6ccccc6CC5S4)cc3)sc2c1 (some centres unmarked) > 10 µM
